# Tested on: A549
# Assay Explanation: NCI tumour cell line growth inhibition, 48 h
Calls of active or inactive are those of the source. Rule as the data show it: active = GI50 up to about 1.1 µM and inactive = higher.
Please state which outcome applies, choosing from active, inactive

Outcome logged for COc1cc(C2c3cc4c(cc3OC(NN)C2C)OCO4)cc(OC)c1O (stereo not given) in this assay:
inactive

Outcome logged for COc1c(O)cc2c(c1O)C1O[C@H](CO)C(O)[C@H](O)[C@H]1OC2=O (stereo not given in full) in this assay:
inactive

Outcome logged for O=C(Nc1cccc2ccccc12)c1cc2ccccc2oc1=O in this assay:
inactive

Outcome logged for O=c1[nH]nc(-c2ccccc2)c2[nH]c3c(c12)CCCc1ccccc1-3 in this assay:
inactive

Outcome logged for c1cc(CSc2ncnc3[nH]cnc23)ccn1 in this assay:
inactive

Outcome logged for CNC(=O)CNC(=O)CCC(=O)N(C)C in this assay:
inactive

Outcome logged for COc1cccc2c1C(=O)c1c(O)c3c(c(O)c1C2=O)C[C@@](O)(C(C)=O)C[C@@H]3OC1CC(N(C)C)C(O)C(C)O1 (stereo not given in full) in this assay:
active

Outcome logged for Cn1c2ccccc2c(=NNc2ccccc2C(=O)O)c2ccccc21 in this assay:
inactive

Outcome logged for [O-][S@@+]1c2ccc3ccccc3c2N[C@@H]2[C@H]1[C@H]1C=C[C@@H]2C1 in this assay:
inactive

Outcome logged for O=C1C(Cl)=C(Cl)C(Cl)(Cl)C(Cl)C1(Cl)Cl (stereo not given) in this assay:
inactive

Outcome logged for C#C[C@]1(O)CC[C@H]2[C@@H]3CCC4=C/C(=N/OC(=O)c5cccc6c(=O)c7ccccc7[nH]c56)CCC4[C@H]3CC[C@@]21CC (stereo not given in full) in this assay:
inactive

Outcome logged for C=C(C)[C@@H]1CCC2=C[C@H](OC2=O)[C@@]2(C)C[C@@H]2C(=O)/C=C(/C)C(=O)[C@H]1OC(C)=O in this assay:
inactive

Outcome logged for Oc1cn(-c2ccc(Cl)cc2)nc1-c1n[nH]c(=S)n1-c1ccccc1 in this assay:
inactive

Outcome logged for Cc1cc(N(CCCl)CCCl)ccc1/C=N/NC(=O)Cc1cc(=O)oc2cc(O)ccc12 in this assay:
inactive

Outcome logged for Nc1ccc(S(=O)(=O)NCc2nccs2)cc1 in this assay:
inactive

Outcome logged for Fc1cc(C2=C[C@H](c3ccc4c(c3)OCO4)NC(=S)N2)c(Cl)cc1Cl in this assay:
inactive

Outcome logged for NS(=O)(=O)c1nnc(NS(=O)(=O)c2ccc(F)cc2)s1 in this assay:
inactive

Outcome logged for O=C(O)Cc1ccc2c(c1)/C(=C1/Nc3ccccc3C1=O)C(=O)N2 in this assay:
inactive

Outcome logged for CCOC(=O)C(=O)C(=O)NN(C)C1=NCCN1 in this assay:
inactive

Outcome logged for Cc1ccc(S(=O)(=O)N(/N=C/C=C/c2ccccc2)c2nnc(-c3ccccc3)c(-c3ccccc3)n2)cc1 in this assay:
inactive

Outcome logged for CC1=CC(=O)/C(=C(/C)NCCN(CCN/C(C)=C2\C(=O)C=C(C)OC2=O)CCN/C(C)=C2\C(=O)C=C(C)OC2=O)C(=O)O1 in this assay:
inactive

Outcome logged for C/C(=N\Nc1nc2ccccc2[nH]1)c1cnccn1 in this assay:
inactive

Outcome logged for CC(C)(C)CN1[C@@H]2CCCC[C@H]2N(CC(C)(C)C)P1(=O)C(O)/C=C/c1ccccc1 (stereo not given in full) in this assay:
inactive

Outcome logged for CCC(=O)NC(Nc1cccc(F)c1C)(C(F)(F)F)C(F)(F)F in this assay:
inactive

Outcome logged for CC(=O)N1C(c2[nH]c3ccccc3c2-c2ccccc2)CCN1c1ccccc1 (stereo not given) in this assay:
inactive

Outcome logged for O=C1CC(CC(=O)C2CCCCC2=O)C(=O)N1 (stereo not given) in this assay:
inactive

Outcome logged for CNc1ccc([S+]([O-])Nc2ccccc2)cc1 (stereo not given) in this assay:
inactive

Outcome logged for CCCCCCCCCCCCCCCCOCC(COP(=O)([O-])OCC[n+]1ccc(N(C)C)cc1)OCC (stereo not given) in this assay:
inactive

Outcome logged for C#CCOCC12C=CC(O1)C1C(=O)OCC12 (stereo not given) in this assay:
inactive

Outcome logged for COP(C)(=O)C1=CCN(C(=O)OCC[Si](C)(C)C)CC1 (stereo not given) in this assay:
inactive

Outcome logged for COC(=O)C(CNC(=O)/C=C/c1ccc(OC(C)=O)c(OC(C)=O)c1)NC(=O)/C=C/c1ccc(OC(C)=O)c(OC(C)=O)c1 (stereo not given) in this assay:
inactive

Outcome logged for CC(C)C[C@@H](NC(=O)[C@@H](Cc1cccc2ccccc12)NC(=O)N1CCOCC1)B(O)O in this assay:
inactive

Outcome logged for CCCCCCCCCCCC(=O)OCC1OC(n2cc(F)c(=O)[nH]c2=O)C(NC(=O)OCc2ccccc2)C(OC(=O)CCCCCCCCCCC)C1O (stereo not given) in this assay:
inactive

Outcome logged for Cc1c2c(n3c(nc4ccccc43)c1C#N)N(c1ccc(Cl)cc1)CC2 in this assay:
inactive

Outcome logged for O=c1[nH]c2nccn2c2c1SCCN2 in this assay:
inactive

Outcome logged for C#Cc1cccc(NC(=O)/C=C\C(=O)O)c1 in this assay:
inactive

Outcome logged for C[N+](C)(C)CC1Cc2ccccc2C1=O (stereo not given) in this assay:
inactive

Outcome logged for CC1(C)CC2(C)OC(=N)C1(C#N)C2(C#N)C#N (stereo not given) in this assay:
inactive

Outcome logged for CC1(O)C(=O)OC2CC([C@]3(O)CCC4[C@@H]5C[C@H]6O[C@]67[C@@H](O)C=CC(=O)[C@]7(C)C5CC[C@@]43C)C1(C)C2 (stereo not given in full) in this assay:
inactive

Outcome logged for CN[C@@H](C)[C@H](NC)c1ccccc1 in this assay:
inactive
